Data origin, for the record: patent US8293729B2

# target: human GPR119 receptor (Homo sapiens, UniProt Q8TDV5, S329A/T327A)
# Construct: N-terminal leader […]; expressed in transfected cells
# Sequence (Q8TDV5 with tags, fused parts or gaps T327A/S329A): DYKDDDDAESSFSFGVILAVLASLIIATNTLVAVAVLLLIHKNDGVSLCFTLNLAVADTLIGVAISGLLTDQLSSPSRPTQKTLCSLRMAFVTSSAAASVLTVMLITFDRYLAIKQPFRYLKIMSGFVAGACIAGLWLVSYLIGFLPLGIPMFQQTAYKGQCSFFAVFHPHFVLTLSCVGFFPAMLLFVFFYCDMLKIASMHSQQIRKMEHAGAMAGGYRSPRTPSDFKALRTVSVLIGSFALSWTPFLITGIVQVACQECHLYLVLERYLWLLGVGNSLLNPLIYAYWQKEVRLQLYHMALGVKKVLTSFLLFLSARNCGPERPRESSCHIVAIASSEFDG
# test protocol: cAMP assay (LANCE cAMP-384) in HEK293 cells stably expressing mutant human GPR119 receptor
# Assay type: cell-based
# condition set: the 15th table; read-out: EC50
measurement label: pEC50
Numbers only, as −log10 of the molar value.

molecule="CC(C)OC(=O)N1CCC(ON=C2CCN(c3cc(F)c(C(=O)NCCC4CCNCC4)cc3F)CC2)CC1 [Example 29-32]" measurement_label=pEC50 number=7.14
molecule="CC(C)OC(=O)N1CCC(ON=C2CCN(c3cc(F)c(C(=O)NCCCN)cc3F)CC2)CC1 [Example 29-7]" measurement_label=pEC50 number=7.38
molecule="CC(C)OC(=O)N1CCC(ON=C2CCN(c3cc(F)c(C(=O)N4CCC[C@H]4CN)cc3F)CC2)CC1 [Example 29-58]" measurement_label=pEC50 number=6.72

Next:
Tell me reported pEC50 for CC(C)OC(=O)N1CCC(ON=C2CCN(c3cc(F)c(C(=O)N4CCNCC4)cc3F)CC2)CC1 [Example 29-3] , tested with human GPR119 receptor (Homo sapiens, UniProt Q8TDV5, S329A/T327A). 6.29
